- assay_system: human D2long receptor (Homo sapiens, UniProt P14416)
- Construct: expressed in transfected cells; host or cells: Chinese hamster ovary (CHO) cells, membranes
- Sequence (P14416 whole entry): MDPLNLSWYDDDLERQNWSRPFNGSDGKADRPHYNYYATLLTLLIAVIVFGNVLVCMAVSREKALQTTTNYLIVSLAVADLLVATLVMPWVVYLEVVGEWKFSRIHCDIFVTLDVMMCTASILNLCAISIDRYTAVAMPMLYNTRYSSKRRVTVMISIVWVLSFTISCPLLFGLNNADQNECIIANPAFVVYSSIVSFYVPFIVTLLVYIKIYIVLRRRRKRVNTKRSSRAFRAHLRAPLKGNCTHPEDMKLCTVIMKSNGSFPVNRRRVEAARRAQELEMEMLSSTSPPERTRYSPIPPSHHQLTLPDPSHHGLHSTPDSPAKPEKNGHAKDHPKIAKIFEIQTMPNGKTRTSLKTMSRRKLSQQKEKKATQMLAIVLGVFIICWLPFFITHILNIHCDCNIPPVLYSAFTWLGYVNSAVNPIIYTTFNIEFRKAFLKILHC
- assay_procedure: radioligand binding with [^3H]spiperone, D2long
- condition: [^3H]spiperone, CHO membranes, mean of 2 to 4 experiments; read-out: Ki D2lo
pKi: −log10 of the molar value.

# molecule, pKi
measured = [
    ("Clc1cccc(N2CCN(CCCCOc3cccn4nccc34)CC2)c1Cl", "> 7.52"),
    ("Clc1ccccc1N1CCN(CCCCOc2ccn3nnnc3c2)CC1", "> 7.52"),
    ("COc1ccccc1N1CCN(CCCCOc2cc3ccccn3n2)CC1 [Example E2]", "> 7.52"),
    ("COC(=O)c1cnn2ccc(OCCCCN3CCN(c4ccccc4OC)CC3)cc12", "> 7.52"),
    ("Clc1cccc(N2CCN(CCCCOc3ccn4ncc(Br)c4c3)CC2)c1Cl", "6.52 to 7.52"),
    ("COc1ccccc1N1CCN(CCCCOc2cccn3nccc23)CC1", "> 7.52"),
    ("O=Cc1c(OCCCCN2CCN(c3ccccc3Cl)CC2)nn2ccccc12", "> 7.52"),
    ("Clc1cccc(N2CCN(CCCCOc3cc4ccccn4n3)CC2)c1Cl [Example E1]", "> 7.52"),
    ("COc1ccccc1N1CCN(CCCCOc2cccc3ccnn23)CC1", "6.52 to 7.52"),
    ("Clc1cccc(N2CCN(CCCCOc3ccn4nccc4c3)CC2)c1Cl", "6.52 to 7.52"),
    ("ON=Cc1cnn2ccc(OCCCCN3CCN(c4ccccc4Cl)CC3)cc12 [Example E35]", "> 7.52"),
    ("COc1ccccc1N1CCN(CCCCOc2ccn3ncc(CNC(C)=O)c3c2)CC1", "> 7.52"),
    ("COc1ccccc1N1CCN(CCCCOc2ccn3ncc(I)c3c2)CC1", "> 7.52"),
    ("COc1ccccc1N1CCN(CCCCOc2ccn3ncc(CN)c3c2)CC1", "> 7.52"),
    ("Clc1ccccc1N1CCN(CCCCOc2cccn3nccc23)CC1", "> 7.52"),
    ("CC(=O)Nc1cccc(N2CCN(CCCCOc3ccn4ncc(C=O)c4c3)CC2)c1", "6.52 to 7.52"),
    ("Clc1ccccc1N1CCN(CCCCOc2ccn3nccc3c2)CC1", "> 7.52"),
    ("CC(=O)c1cnn2ccc(OCCCCN3CCN(c4ccccc4Cl)CC3)cc12", "> 7.52"),
    ("Clc1cccc(N2CCN(CCCCOc3ccn4ncc(I)c4c3)CC2)c1Cl", "6.52 to 7.52"),
    ("Clc1cccc(N2CCN(CCCCOc3ccn4nnnc4c3)CC2)c1Cl", "> 7.52"),
]
